Molecular target: KRAS G13D protein in DLD-1 cells (Homo sapiens, UniProt P01116, G13D)
Construct: endogenous in cells; host or cells: DLD-1
Sequence (P01116 1-188 isoform P01116-2 G13D): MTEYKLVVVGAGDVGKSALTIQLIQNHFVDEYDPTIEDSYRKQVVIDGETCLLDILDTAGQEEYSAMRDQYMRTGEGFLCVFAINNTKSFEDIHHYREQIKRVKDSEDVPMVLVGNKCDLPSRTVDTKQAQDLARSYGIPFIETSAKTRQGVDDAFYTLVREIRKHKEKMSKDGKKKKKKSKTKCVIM
Test: KRAS degradation assay (Western Blot) in DLD-1 cells
Assay type: cell-based
Settings: 24 h
readout.label: DC50 (nM)

>  <compound>
[2H]C([2H])([2H])c1ccc(C(=O)N2CCC3(CCC(CN4CCN(C[C@@H](C)COc5nc(N6CCC[C@@](C)(O)C6)c6cnc(-c7cc(O)cc8ccc(F)c(C#C)c78)c(F)c6n5)CC4)CC3)CC2)cc1N1CCC(=O)NC1=O [Example 132]

>  <readout.label>
DC50

>  <readout.value>
5.6

$$$$

[I] C#Cc1c(F)ccc2cc(O)cc(-c3ncc4c(N(C)[C@H]5C[C@@H]5F)nc(OC[C@H](C)CN5CCN(CC6CCC7(CC6)CCN(C(=O)c6ccc(OC)c(N8CCC(=O)NC8=O)c6)CC7)CC5)nc4c3F)c12 [Example 50]
[II] C#Cc1c(F)ccc2cc(O)cc(-c3ncc4c(N5CCC[C@@](C)(O)C5)nc(OC[C@H](C)CN5CCN(CC6CCC7(CC6)CCN(C(=O)c6ccc(OC)c(N8CCC(=O)NC8=O)c6)CC7)CC5)nc4c3F)c12 [Example 46]
Enquiry: Could you check which of I and II has a smaller value for DC50? // respond with label for picked entry
Return: II
(II: 2.36 nM, I: 3.98 nM)
